- tgt: Human immunodeficiency virus type 1 integrase (Human immunodeficiency virus 1, UniProt Q7ZJM1)
- Sequence (Q7ZJM1 whole entry): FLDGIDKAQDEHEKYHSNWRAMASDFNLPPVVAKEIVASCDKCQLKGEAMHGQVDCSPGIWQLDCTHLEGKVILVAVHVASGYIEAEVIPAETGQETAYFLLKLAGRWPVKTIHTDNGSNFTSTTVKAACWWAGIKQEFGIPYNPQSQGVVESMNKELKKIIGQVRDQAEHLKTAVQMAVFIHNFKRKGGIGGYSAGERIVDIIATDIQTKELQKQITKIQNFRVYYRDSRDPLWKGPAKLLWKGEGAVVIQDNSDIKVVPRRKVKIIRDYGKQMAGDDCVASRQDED
- method.description: Inhibition of wild-type HIV1 integrase strand transfer activity
pIC50: −log10 of the molar value.
quantity: pIC50

> print(dat)
                           smiles.structure  rel  readout.number
1  CN(C)c1ccc(/C=C/C(=O)c2c(O)cc(/C=C/c3ccc(N(C)C)cc3)oc2=O)cc1    <            4.00
2   Cc1cc(O)c(C(=O)/C=C/c2ccc(Br)s2)c(=O)o1    =            4.64
3  COc1ccc(/C=C/C2=[O+][B-](F)(F)Oc3cc(/C=C/c4ccc(N(C)C)cc4)oc(=O)c32)cc1    <            4.00
4  Cc1cc(O)c(C(=O)/C=C/C=C/c2ccc(N(C)C)cc2)c(=O)o1    <            4.00
5  Cc1cc2c(c(=O)o1)C(/C=C/c1ccc(F)cc1)=[O+][B-](F)(F)O2    =            4.80
